targetOfAssay: BTK (Homo sapiens)
assayMethodText: biochemical
experimentalConditions: read-out: BTK inhibition (%), 0.75 uM BTK, […] probe 3l, 15 min preincubation
experimentalReadout: inhibition at 10 µM (%)
Provide only the numeric value, understood in %.

• O=C[C@H](O)[C@@H](O)[C@H](O)[C@H](O)CO[C@H]1O[C@H](CO[C@H]2O[C@H](CO)[C@H](O)[C@H](O)[C@H]2O)[C@H](O)[C@H](O)[C@H]1O = 3.9

Q: I have this compound here, "C=C1C[C@@]23CC[C@H]4[C@@](C)(CCC[C@@]4(C)C(=O)O)[C@@H]2CC[C@@H]1C3" , and I need its recorded inhibition at 10 µM.
Result: -3.9

Q: I have this compound here, "CN(C)CCCn1cc(C2=C(c3c[nH]c4ccccc34)C(=O)NC2=O)c2ccccc21" , and I need its recorded inhibition at 10 µM.
Result: 47.6

Q: Entry "CN(C)C(=S)NN=C(c1ccccn1)c1ccccn1" : reported inhibition at 10 µM = ?
Result: 20.1

Q: I am curious: what inhibition at 10 µM value has been reported for "CCOC(=O)C=P(c1ccccc1)(c1ccccc1)c1ccccc1" ?
Result: -14.7

Q: Requested read-out: inhibition at 10 µM. Entry: "CCCc1ccc(OCC(=O)N(Cc2nc(-c3cccnc3)no2)C(C)C)cc1"
Result: -16.2

----------
Some compounds, each annotated with its measured inhibition at 10 µM.
targetOfAssay: BTK (Homo sapiens, UniProt Q06187)
Sequence (Q06187 402-655 limits assumed): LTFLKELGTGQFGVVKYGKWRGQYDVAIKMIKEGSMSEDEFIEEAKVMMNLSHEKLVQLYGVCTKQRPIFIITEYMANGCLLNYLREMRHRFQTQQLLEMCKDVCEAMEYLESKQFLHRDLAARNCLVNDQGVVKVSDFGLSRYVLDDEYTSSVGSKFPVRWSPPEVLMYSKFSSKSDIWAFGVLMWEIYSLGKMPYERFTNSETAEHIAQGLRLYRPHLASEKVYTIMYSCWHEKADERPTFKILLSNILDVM
assayMethodText: biochemical
experimentalConditions: read-out: BTK inhibition (%), 0.75 uM BTK, […] probe 3l, 15 min preincubation
Answer format: numeric, % implied, no suffix.

# example entries with known answers
- Cc1cc(O)c(C(=O)CCC(C)C)c(=O)o1: 5.4
- O=c1ccc2ccc(O)cc2[nH]1: 7.8
- COC(=O)C1=CO[C@@H](O[C@@H]2O[C@H](CO)[C@@H](O)[C@H](O)[C@H]2O)[C@@H]2[C@H](C)O[C@@H](O)C[C@H]12: -19.3
- CO/N=C(\C(=O)N[C@@H]1C(=O)N2C(C(=O)O)=C(Cn3ccc(=N)n3CCO)CS[C@H]12)c1csc(N)n1: 9.4
- COC1=CC(=O)c2ccccc2C1=O: 85.6

Kindly review the next compound as well.
Q: Look at this compound and give its reported inhibition at 10 µM. "CCOc1nc2cccc(C(=O)O)c2n1Cc1ccc(-c2ccccc2-c2noc(=O)[nH]2)cc1"
Result: -3.1

----------
targetOfAssay: BTK (Homo sapiens, UniProt Q06187)
assayMethodText: biochemical
experimentalConditions: read-out: BTK inhibition (%), 0.75 uM BTK, […] probe 3l, 15 min preincubation
The label depends only on inhibition at 10 µM: y if it is at least 10%, n if it is smaller.

- O=C1CCc2ccc(OCCCCN3CCN(c4cccc(Cl)c4Cl)CC3)cc2N1: n
- Cc1cc(Nc2cc(Cl)nc(Oc3ccc([N+](=O)[O-])cc3)n2)n[nH]1: y
- Cc1cc(SCc2sc(-c3ccc(C(F)(F)F)cc3)nc2C)ccc1OCC(=O)O: y
- COCCNCc1ccc(-c2cc3nccc(Oc4ccc(NC(=O)C5(C(=O)Nc6ccc(F)cc6)CC5)cc4F)c3s2)nc1: y
- NS(=O)(=O)Cc1noc2ccccc12: n
- CC(C)[C@H](C)[C@@H](O)[C@H](O)[C@@H](C)[C@H]1CC[C@H]2[C@@H]3COC(=O)[C@H]4C[C@H](O)[C@H](O)C[C@]4(C)[C@H]3CC[C@]12C: n

Q: Hi, just wondering whether CC(C(=O)O)c1ccc(C(=O)c2cccs2)cc1 (centres unmarked) shows inhibition at 10 µM of 10% or higher.
Result: n

Q: Is inhibition at 10 µM for "Cc1cccc(C)c1NC(=O)CN1CCCC1=O" at or above 10%?
Result: n

Q: Please tell me: is the compound "CC(C)(C)OC(=O)Nc1ccc(-c2cc(C(=O)NCCCCCCC(=O)NO)no2)cc1" at or over 10% in terms of inhibition at 10 µM?
Result: y

Q: Decide: inhibition at 10 µM of "CCN(CC)CCOC(=O)c1ccc(N)cc1" >= 10%?
Result: n

Q: Is reported inhibition at 10 µM greater than or equal to 10% here: O=C(NOCC(O)CO)c1cc(Br)c(F)c(F)c1Nc1ccc(I)cc1F (centres unmarked)
Result: n
